Reference for the values: ChEMBL document CHEMBL1201862

A collection of molecules and their measured EC50
- assay.target: Corticotropin-releasing factor receptor 2/Corticotropin-releasing factor-binding protein (Homo sapiens, UniProt P24387+Q13324)
- Sequence (Q13324 whole entry): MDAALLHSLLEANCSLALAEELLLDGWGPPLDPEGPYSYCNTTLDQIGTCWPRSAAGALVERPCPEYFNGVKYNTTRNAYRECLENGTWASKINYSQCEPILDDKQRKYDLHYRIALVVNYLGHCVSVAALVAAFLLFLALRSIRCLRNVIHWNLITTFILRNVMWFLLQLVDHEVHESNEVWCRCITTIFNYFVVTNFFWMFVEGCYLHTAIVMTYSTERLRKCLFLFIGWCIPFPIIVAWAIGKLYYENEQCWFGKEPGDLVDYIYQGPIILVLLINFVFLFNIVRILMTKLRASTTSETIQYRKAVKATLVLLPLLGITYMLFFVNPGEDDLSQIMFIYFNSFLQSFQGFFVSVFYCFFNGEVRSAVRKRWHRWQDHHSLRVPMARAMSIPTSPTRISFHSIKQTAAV
- Sequence (P24387 whole entry): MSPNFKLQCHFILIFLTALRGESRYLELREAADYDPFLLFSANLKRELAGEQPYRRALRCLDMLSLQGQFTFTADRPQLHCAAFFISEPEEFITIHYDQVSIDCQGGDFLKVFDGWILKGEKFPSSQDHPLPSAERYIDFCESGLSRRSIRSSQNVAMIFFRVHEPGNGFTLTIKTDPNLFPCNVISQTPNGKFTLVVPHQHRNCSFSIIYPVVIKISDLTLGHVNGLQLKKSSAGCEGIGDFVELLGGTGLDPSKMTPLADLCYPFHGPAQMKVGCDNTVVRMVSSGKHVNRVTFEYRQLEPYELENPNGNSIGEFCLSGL
- method.summary: activators of CRF receptor 2 with binding protein – uHTS hits, confirmation (AID 602473)
- Assay type: functional
- measurement.parameters: read-out: EC50_Mean
Activity calls are given as the source filed them. No stated cut-off is given here; in the data, actives have a measured EC50 and inactives only a lower limit.

molecule	EC50
O=c1oc(-c2ccco2)nc2sc3c(c12)CCCC3	> 53 µM (inactive)
CC(C)c1ccc(NC(=S)NN2CCOCC2)cc1	> 53 µM (inactive)
COc1ccc2nc3ccccc3nc2c1NC(=O)c1ccc(Cl)cc1Cl	6.99 µM (active)
CCOC(=O)c1ccc(CNC(=O)Cn2nnc(-c3ccccc3)n2)o1	> 53 µM (inactive)
CCN=C(S)N(CCc1ccc(S(N)(=O)=O)cc1)C1CC(=O)N(c2ccccc2)C1=O (centres undefined)	18.5 µM (active)
N#Cc1ccsc1NC(=O)c1cccc([N+](=O)[O-])c1	4.08 µM (active)
O=C(O)c1cc(Cl)ccc1-c1ccc(/C=C/c2cc(C(F)(F)F)nc(O)n2)o1	6.29 µM (active)
CC(=O)Nc1ccc(/C=N/N2C(=O)NC(C)(c3ccc(OC(F)F)cc3)C2=O)cc1 (centres undefined)	1.37 µM (active)
CC(=O)c1cccc(Nc2nc3ccccc3n3cnnc23)c1	> 53 µM (inactive)
Cc1noc(C)c1S(=O)(=O)N1CCC(C(=O)N2CCN(c3ccc(F)cc3)CC2)CC1	> 53 µM (inactive)
Cc1nnc(SCC(=O)N(C)c2c(N)n(Cc3ccccc3)c(=O)[nH]c2=O)n1Cc1ccccc1	> 53 µM (inactive)
CC(=O)C1=C(C)N=C(S)NC1c1cc([N+](=O)[O-])ccc1O (centres undefined)	> 53 µM (inactive)
COc1ccc(NC(=N)SCc2ccccn2)cc1	15.6 µM (active)
Cn1c(=O)oc2cc(S(=O)(=O)NCCC(=O)NCc3ccc(F)cc3)ccc21	> 53 µM (inactive)
COc1ccc(CNS(=O)(=O)NCc2ccccc2)cc1OC	> 53 µM (inactive)
COc1ccc(C(=O)Cn2cnc3ccccc3c2=O)c(OC)c1	> 53 µM (inactive)
CC(=O)N1N=C(C)CC1c1ccc(OCc2ccccc2)cc1 (centres undefined)	> 53 µM (inactive)
COc1ccc(CN(C2CCCCC2C)S(=O)(=O)c2ccc(S(=O)(=O)N(C)C)cc2)cc1OC (centres undefined)	5.42 µM (active)
O=C(CN1CCN(C(=O)c2ccco2)CC1)Nc1c2c(nc3c1CCC3)CCCC2	> 53 µM (inactive)
COc1ccc(C(C)=O)cc1CSc1nnc2c(Cl)cc(Cl)cn12	> 53 µM (inactive)
CCCn1c(=O)c(C(=O)NNC(=O)c2ccccc2Cl)c(O)c2ccccc21	5.81 µM (active)
CC1(c2ccc(OC(F)F)cc2)NC(=O)N(CC(=O)Nc2ccc3c(c2)OCO3)C1=O (centres undefined)	5.24 µM (active)
Cc1nn(C)c(C(=O)N/N=C/c2cccc(Oc3ccccc3)c2)c1Br	> 53 µM (inactive)
O=C(Nc1ccc(Oc2cccnc2)nc1)c1ccc(C(F)(F)F)cc1	> 53 µM (inactive)
Cc1ccccc1CNC(=O)Nc1cccs1	> 53 µM (inactive)
Cc1ccc(-c2nn(C)c(=O)c3ccccc23)cc1CO	> 53 µM (inactive)
Nc1ccc2c3c(cccc13)-c1ccccc1-2	4.79 µM (active)
O=C(c1ccc(S(=O)(=O)Nc2ccccc2)cc1)N1CCCC(C(F)(F)F)C1 (centres undefined)	10.5 µM (active)
CCCCC1(CCCC)C(=O)N=C(Nc2cccc(C)c2)NC1=O	3.98 µM (active)
Cc1ccc(CNC(=O)CN(c2ccc(C)cc2)S(=O)(=O)c2c(C)nn(C)c2C)cc1	> 53 µM (inactive)
CCC(C)C(=O)Nc1nnc(SCC(=O)NC(C)(C)C)s1 (centres undefined)	> 53 µM (inactive)
O=C(Nc1ccccc1N1CCCCC1)C1CCN(C(=O)c2ccc(Cl)cc2)CC1	> 53 µM (inactive)
CCOc1ccc(S(=O)(=O)n2ccc(C)n2)c2ccccc12	21.2 µM (active)
O=C(COc1ccccc1F)N1CCN(CCN2C(=O)c3cccc4cccc(c34)C2=O)CC1	> 53 µM (inactive)
